Reference source for all entries: patent US20210009542A1

Measured pIC50, listed per entry for reference.
target: His tagged PTPN2 (TC45) protein (Homo sapiens); construct: made in house; assay: Mobility shift assay (MSA) for potency of PTPN2 inhibitors; type: biochemical; settings: read-out: PTPN2 MSA IC50
pIC50: −log10 of the molar value. Counter-ions that a name gives are not always drawn.

Worked examples, 3 compounds total:
| compound | obs.value |
| --- | --- |
| O=C1CN(c2c(O)cc3ccc(C4=CCN(S(=O)(=O)CCCC(F)(F)F)C4)cc3c2F)S(=O)(=O)N1 [Compound 290] | > 9.00 |
| N#CCOc1ccc2cc(O)c(N3CC(=O)NS3(=O)=O)c(F)c2c1 [Compound 203] | 8.00 to 9.00 |
| O=C1CN(c2c(O)cc3ccc4occc4c3c2F)S(=O)(=O)N1 [Compound 104] | 8.00 to 9.00 |

Lab note: O=C1CN(c2c(O)cc3ccc(OCCC4CCCCC4)cc3c2F)S(=O)(=O)N1 [Compound 320] gave pIC50 of > 9.00

Noted for O=C1CN(c2c(O)cc3ccc(OC(F)F)cc3c2F)S(=O)(=O)N1 [Compound 260] : its pIC50 reads 8.00 to 9.00

The value of pIC50 measured for the compound O=C1CN(c2c(O)cc3ccc(OCC4CC(F)(F)C4)cc3c2F)S(=O)(=O)N1 [Compound 235] turned out to be 8.00 to 9.00

# pIC50 (compound: COCCCOc1ccc2cc(O)c(N3CC(=O)NS3(=O)=O)c(F)c2c1 [Compound 247] ) is 8.00 to 9.00

According to the records, this compound O=C1CN(c2c(O)cc3ccc(C4CC4)cc3c2F)S(=O)(=O)N1 [Compound 236] displays pIC50 of 8.00 to 9.00

Value of pIC50 reported for the compound CC(O)COc1ccc2cc(O)c(N3CC(=O)NS3(=O)=O)c(F)c2c1 (centres unmarked) [Compound 135] is 8.00 to 9.00

The recorded pIC50 for O=C1CN(c2c(O)cc3ccc(CC4CN(S(=O)(=O)C5CC5)C4)cc3c2F)S(=O)(=O)N1 [Compound 256] is > 9.00

According to the records, this compound Nc1cccc(CS(=O)(=O)N2CC=C(c3ccc4cc(O)c(N5CC(=O)NS5(=O)=O)c(F)c4c3)C2)c1 [Compound 194] displays pIC50 of > 9.00

Reported pIC50 of CC(C)CCOc1ccc2cc(O)c(N3CC(=O)NS3(=O)=O)c(F)c2c1 [Compound 204] : > 9.00

The compound identified as COCCNc1ccc2cc(O)c(N3CC(=O)NS3(=O)=O)c(F)c2c1 [Compound 179] registered its pIC50 at 7.00 to 8.00

In plain terms, O=C1CN(c2c(O)cc3ccc(C4CCOC4)cc3c2F)S(=O)(=O)N1 (centres unmarked) [Compound 255] has a documented pIC50 of 8.00 to 9.00

For O=C1CN(c2c(O)cc3ccc(CCO)cc3c2F)S(=O)(=O)N1 [Compound 175, Ammonium Salt] the compound record lists pIC50 as 7.00 to 8.00

* * *

tested on: B16F10 mouse melanoma cells; assay: B16F10 IFNγ-induced cellular growth inhibition assay; assay type: cell-based; details: Mus musculus, B16-F10; +0.5 ng/mL IFNγ; 33 μM compound; relative to DMSO control; read-out: % B16F10 growth inhibition (+0.5 ng/mL IFNγ) @ 33 μM
measured.endpoint: inhibition at 33 µM

Solved entries (count: 4):
| molecule | system.tested | inhibition at 33 µM |
| --- | --- | --- |
| O=C1CN(c2c(O)cc3ccc(OCCO)cc3c2F)S(=O)(=O)N1 [Compound 277] | B16F10 mouse melanoma cells | 60 to 90% |
| O=C1CN(c2c(O)cc3ccc(OC4COC4)cc3c2F)S(=O)(=O)N1 [Compound 274] | B16F10 mouse melanoma cells | 60 to 90% |
| O=C1CN(c2c(O)cc3ccc(OCCC4CC4(F)F)cc3c2F)S(=O)(=O)N1 (centres unmarked) [Compound 192] | B16F10 mouse melanoma cells | 60 to 90% |
| COC/C=C/c1ccc2cc(O)c(N3CC(=O)NS3(=O)=O)c(F)c2c1 [Compound 245] | B16F10 mouse melanoma cells | 60 to 90% |

// next entry
The molecule listed as CS(=O)(=O)N1CC(Nc2ccc3cc(O)c(N4CC(=O)NS4(=O)=O)c(F)c3c2)C1 [Compound 128] has a reported inhibition at 33 µM of > 90%

* * *

# Lookup of reported IC50 keyed by entry
target: His tagged PTPN2 (TC45) protein (Homo sapiens, UniProt P17706); construct: made in house; test: Mobility shift assay (MSA) for potency of PTPN2 inhibitors; type: biochemical; details: read-out: PTPN2 MSA IC50
Sequence (P17706 with tags, fused parts or gaps isoform P17706-2): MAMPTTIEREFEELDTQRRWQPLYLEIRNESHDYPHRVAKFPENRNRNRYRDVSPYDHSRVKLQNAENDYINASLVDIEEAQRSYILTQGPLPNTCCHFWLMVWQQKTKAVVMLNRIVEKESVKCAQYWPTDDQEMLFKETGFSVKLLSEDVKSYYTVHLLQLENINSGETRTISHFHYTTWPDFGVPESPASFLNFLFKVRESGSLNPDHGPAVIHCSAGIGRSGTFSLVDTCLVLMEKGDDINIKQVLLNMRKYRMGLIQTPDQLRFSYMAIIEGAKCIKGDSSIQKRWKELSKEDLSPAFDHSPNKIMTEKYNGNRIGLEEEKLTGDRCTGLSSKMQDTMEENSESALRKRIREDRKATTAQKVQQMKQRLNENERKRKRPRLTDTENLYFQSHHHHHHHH

| molecule | system.tested | obs.value |
| --- | --- | --- |
| O=C1CN(c2c(O)cc3ccc(OCCNS(=O)(=O)C4COC4)cc3c2F)S(=O)(=O)N1 | His tagged PTPN2 (TC45) protein (Homo sapiens, UniProt P17706) | < 1 nM |
| CC(C)CCCc1ccc2cc(O)c(N3CC(=O)NS3(=O)=O)c(F)c2c1 | His tagged PTPN2 (TC45) protein (Homo sapiens, UniProt P17706) | 1 to 10 nM |
| CC(C)CCS(=O)(=O)N1CC=C(c2ccc3cc(O)c(N4CC(=O)NS4(=O)=O)c(F)c3c2)C1 | His tagged PTPN2 (TC45) protein (Homo sapiens, UniProt P17706) | < 1 nM |
| CCCCS(=O)(=O)N1CC=C(c2ccc3cc(O)c(N4CC(=O)NS4(=O)=O)c(F)c3c2)C1 | His tagged PTPN2 (TC45) protein (Homo sapiens, UniProt P17706) | < 1 nM |
| O=C1CN(c2c(O)cc3ccc(OC(CO)CCl)cc3c2F)S(=O)(=O)N1 (centres unmarked) | His tagged PTPN2 (TC45) protein (Homo sapiens, UniProt P17706) | 1 to 10 nM |
| CCS(=O)(=O)NCCOc1ccc2cc(O)c(N3CC(=O)NS3(=O)=O)c(F)c2c1 | His tagged PTPN2 (TC45) protein (Homo sapiens, UniProt P17706) | < 1 nM |
| CP(C)(=O)c1ccc(-c2ccc3cc(O)c(N4CC(=O)NS4(=O)=O)c(F)c3c2)s1 | His tagged PTPN2 (TC45) protein (Homo sapiens, UniProt P17706) | < 1 nM |

Field: next molecule
According to the records, this molecule O=C1CN(c2c(O)cc3ccc(C4=CCN(S(=O)(=O)c5ccsc5)C4)cc3c2F)S(=O)(=O)N1 displays IC50 of < 1 nM
